Items are presented alongside their recorded pIC50.
- SYSTEM NAME: recombinant human Mcl-1 (Mcl-1/Bim interaction) (Homo sapiens (Human), UniProt Q07820)
- Sequence (Q07820 171-327): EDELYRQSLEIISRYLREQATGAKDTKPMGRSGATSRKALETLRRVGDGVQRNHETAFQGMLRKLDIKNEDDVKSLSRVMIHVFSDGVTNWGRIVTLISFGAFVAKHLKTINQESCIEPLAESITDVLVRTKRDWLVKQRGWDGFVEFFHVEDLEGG
- ASSAY METHOD TEXT: biochemical
- Format: binding
- EXPERIMENTAL SETUP: cell free Mcl-1:Bim TR-FRET; read-out: Mcl-1 HTRF IC50
pIC50: −log10 of the molar value.
RECORDED ENDPOINT: pIC50

>  <COMPOUND>
COCC[C@@H]1[C@@H](C)C/C=C/[C@@](CN2CCN(C(C)C)[C@H](C)C2)(OC)[C@@H]2CC[C@H]2CN2C[C@@]3(CCCc4cc(Cl)ccc43)COc3ccc(cc32)C(=O)NS1(=O)=O [Example 12]

>  <SYSTEM NAME>
recombinant human Mcl-1 (Mcl-1/Bim interaction) (Homo sapiens (Human), UniProt Q07820)

>  <VALUE REPORTED>
10.14

$$$$
>  <COMPOUND>
CCO[C@]1(CN2CCN(C(C)C)[C@H](C)C2)/C=C/C[C@H](C)[C@@H](CCOC)S(=O)(=O)NC(=O)c2ccc3c(c2)N(C[C@@H]2CC[C@H]21)C[C@@]1(CCCc2cc(Cl)ccc21)CO3 [Example 17]

>  <SYSTEM NAME>
recombinant human Mcl-1 (Mcl-1/Bim interaction) (Homo sapiens (Human), UniProt Q07820)

>  <VALUE REPORTED>
10.14

$$$$
>  <COMPOUND>
CO[C@@]1(CN2CCN3CCN(C(C)=O)C[C@@H]3C2)/C=C/C[C@H](C)[C@@H](C)S(=O)(=O)NC(=O)c2ccc3c(c2)N(C[C@@H]2CC[C@H]21)C[C@@]1(CCCc2cc(Cl)ccc21)CO3 (single isomer, unassigned) [Example 225]

>  <SYSTEM NAME>
recombinant human Mcl-1 (Mcl-1/Bim interaction) (Homo sapiens (Human), UniProt Q07820)

>  <VALUE REPORTED>
10.06

$$$$
>  <COMPOUND>
CO[C@]1(CN2CCN3CCS(=O)(=O)C[C@@H]3C2)/C=C/C[C@H](C)[C@@H](C)S(=O)(=O)NC(=O)c2ccc3c(c2)N(C[C@@H]2CC[C@H]21)C[C@@]1(CCCc2cc(Cl)ccc21)CO3 (stereo in doubt) [Example 219]

>  <SYSTEM NAME>
recombinant human Mcl-1 (Mcl-1/Bim interaction) (Homo sapiens (Human), UniProt Q07820)

>  <VALUE REPORTED>
10.14

$$$$
>  <COMPOUND>
CO[C@@]1(CN2CCN3CCN(C(C)=O)C[C@@H]3C2)/C=C/C[C@H](C)[C@@H](C)S(=O)(=O)NC(=O)c2ccc3c(c2)N(C[C@@H]2CC[C@H]21)C[C@@]1(CCCc2cc(Cl)ccc21)CO3 (stereo in doubt) [Example 214]

>  <SYSTEM NAME>
recombinant human Mcl-1 (Mcl-1/Bim interaction) (Homo sapiens (Human), UniProt Q07820)

>  <VALUE REPORTED>
10.15

$$$$
>  <COMPOUND>
CO[C@@]1(CN2CCN([C@H]3CCOC3)CC2)/C=C/C[C@H](C)[C@@H](C)S(=O)(=O)NC(=O)c2ccc3c(c2)N(C[C@@H]2CC[C@H]21)C[C@@]1(CCCc2cc(Cl)ccc21)CO3 (stereo in doubt) [Example 275]

>  <SYSTEM NAME>
recombinant human Mcl-1 (Mcl-1/Bim interaction) (Homo sapiens (Human), UniProt Q07820)

>  <VALUE REPORTED>
9.75

$$$$
>  <COMPOUND>
CO[C@@]1(CN2CCN3CCOC[C@@H]3C2)/C=C/C[C@H](C)[C@H]2CCN(C(=O)c3ccc4c(c3)N(C[C@@H]3CC[C@H]31)C[C@@]1(CCCc3cc(Cl)ccc31)CO4)S2(=O)=O [Example 364]

>  <SYSTEM NAME>
recombinant human Mcl-1 (Mcl-1/Bim interaction) (Homo sapiens (Human), UniProt Q07820)

>  <VALUE REPORTED>
6.72

$$$$
>  <COMPOUND>
CO[C@]1(CN2CCN3CC[C@H](F)C[C@@H]3C2)/C=C/C[C@H](C)[C@@H](C)S(=O)(=O)NC(=O)c2ccc3c(c2)N(C[C@@H]2CC[C@H]21)C[C@@]1(CCCc2cc(Cl)ccc21)CO3 (stereo in doubt) [Example 293]

>  <SYSTEM NAME>
recombinant human Mcl-1 (Mcl-1/Bim interaction) (Homo sapiens (Human), UniProt Q07820)

>  <VALUE REPORTED>
9.62

$$$$
>  <COMPOUND>
CO[C@]1(CN2CCN3CCCCC[C@@H]3C2)/C=C/C[C@H](C)[C@@H](C)S(=O)(=O)NC(=O)c2ccc3c(c2)N(C[C@@H]2CC[C@H]21)C[C@@]1(CCCc2cc(Cl)ccc21)CO3 (stereo in doubt) [Example 87]

>  <SYSTEM NAME>
recombinant human Mcl-1 (Mcl-1/Bim interaction) (Homo sapiens (Human), UniProt Q07820)

>  <VALUE REPORTED>
9.90

$$$$
